Biological target: T1, human GFRAL (analyte in Biacore assays) (human, UniProt Q6UXV0 19-351, limits assumed)
T1 construct: injected in solution over captured antibody; also called hGFRAL
T1 sequence: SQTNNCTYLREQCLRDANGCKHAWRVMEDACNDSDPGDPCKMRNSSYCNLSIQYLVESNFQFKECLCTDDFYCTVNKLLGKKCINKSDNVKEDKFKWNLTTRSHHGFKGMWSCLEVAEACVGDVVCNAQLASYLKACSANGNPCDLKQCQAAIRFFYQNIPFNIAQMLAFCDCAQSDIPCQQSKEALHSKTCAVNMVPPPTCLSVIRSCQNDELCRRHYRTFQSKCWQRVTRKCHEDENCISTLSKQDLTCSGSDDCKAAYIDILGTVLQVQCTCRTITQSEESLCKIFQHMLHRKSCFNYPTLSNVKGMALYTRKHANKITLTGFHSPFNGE
Assay: Biacore SPR, antibody captured, GFRAL injected
Listed here are binders together with their documented Kd.
assay metric: Kd

binder: antibody designated 12A3 (antibody, V domains shown, mouse hybridoma monoclonal) VH: QIQLVQSGPELKKPGETVKISCKASGYPFTIYGMNWVEQAPGKGLKWMGWINTYSGVPTYADDFKGRFAFSLETSASTAYLQINNLKDEDTATYFCASATGNYWGQGTTLTVSS VL: DIQMTQSPSSLSASLGERVSLTCRASQDIGSSLNWLQQEPDGTIKRLIYATSSLDSGVPKRFSGSRSGSDYSLTISSLESEDFVDYYCLQYASSPYTFGGGTKVEIK
assay metric: Kd
observed: < 0.1 nM
--
binder: antibody designated 17J16 (antibody, V domains shown, mouse hybridoma monoclonal) VH: QVQLQQSGAELAKPGASVKMSCKTSGYTFTDYWIHWVKQRPGQGLEWIGYINPNSNYAEYNQKFKVKATLTADKSSSTAYLQLSRLTSEDSAVYYCARFDWNWYFHVWGAGSTVTVSS VL: DVALTQIPLTLSVTVGQPASISCKSSQSLSDSDGKTYLNWLLQKPGQSPKRLIYLVSRLGSGVPDRFTGSGSGADFTLKISRVEAEDLGVYYCWQGTHFPQTFGGGTKLEIK
assay metric: Kd
observed: < 0.1 nM
--
binder: antibody designated 2B8 (antibody, V domains shown, mouse hybridoma monoclonal) VH: QIQLVQSGPELKKPGETVKISCKASGYTFTTYGMSWVKQAPGKIFKWMGWINTYSGVPTFVDDFRGRFAFSLETSASTAYLQIGNLKNEDTATYFCARRSSYYPYWYFDVWGTGTTVTVSS VL: DIQMTQSPASLSASVGETVTITCRPSENIYSYLTWFQQEQGKSPQLLVYNAQTLAEGVPSRFSGSGSGTHFSLKINSLQPEDFGTYYCQHYYGYPFTFGSGTKLEIK
assay metric: Kd
observed: 0.73 nM
--
binder: antibody designated 8D8 (antibody, V domains shown, mouse hybridoma monoclonal) VH: QVQLKESGPGLVAPSQSLSITCTVSGFSLSRYSVHWVRQPPGKGLEWLGMIWGFGSTDYNSALKSRLSITKDNSKSQFFLKMNSLQTDDTAMYYCARIHTTAGSYWGQGTLVTVSA VL: DIVMTQSQKFMSTSIGDRVSVTCKASQNVGTNVAWYQQKPGQSPKALVYSTSYRYSGVPDRFTGSGSGTDFTLTISNVQSEDLAEYFCHQYNSYPLTFGAGTKLELK
assay metric: Kd
observed: 0.46 nM
--
binder: antibody designated P1H8 (antibody, V domains shown, mouse hybridoma monoclonal) VH: EVQLQQSGPELVKPGASVKISCKASGYTFTDYYMNWVKQSHGKSLEWIGDINPNNGGTTYNQKFKGKATLTVDKSSSTAYMELRSLTSEDSAVYYCARQGPWYFDVWGTGTTVTVSS VL: DVLMTQTPLSLPVSLGDQASISCRSSQTIVHSNGYTYLEWYLQKPGQSPKLLIYKVSNRFSGVPDRFSGSGSGTDFTLKISRVEAEDLGVYYCFQGSHVPWTFGGGTKLEIK
assay metric: Kd
observed: 0.21 nM
--
binder: antibody designated 1C1 (antibody, V domains shown, mouse hybridoma monoclonal) VH: QMQLKQSGPGLVQPSQSLSITCTVSGFSLNDYGVHWIRQSPGKGLEWLGVIWSGGRTDYNAAFISRLSISKDNSKSQVFFKMSSLQPQDTAIYYCARWALYFLYGGSMDYWGQGTSVTVSS VL: DVVLTQTPLSLPVSPGDQASISCRSSQSLVHSSGITYLHWYLQKPGQSPKLLIYKLSNRFSGVPDRFSGSGSGTDFTLKISRVEAEDLGVYFCSQSTHVPPWTFGGGTKLEIK
assay metric: Kd
observed: < 0.1 nM
--
binder: antibody designated 1A3 (antibody, V domains shown, mouse hybridoma monoclonal) VH: EVQLQQSGPELVKPGASVKISCKASGFTFTDYYMNWVKQSHGKSLEWIGDIIPNNGVTSYNQKFKGKATLTVDKSSSTAYMELRSLTSEDSAVYYCAREWLLRGMDYWGQGTSVTVSS VL: DIVMTQAAFSNPVTLGTSASISCRSSKSLLHSNGITYLYWYLQKPGQSPQLLIYQMSNLASGVPDRFSSSGSGTDFTLRISRVEAEDVGVYYCAQHLELTWTFGGGTKLEIK
assay metric: Kd
observed: 0.11 nM

src = patent US20170306031A1
